Molecular target: alpha-synuclein fibrils (UniProt P37840 1-140)
Assay: SPR, captured mAb
OBSERVED_PROPERTY: Kd (nM)

ACI-8032-6301A10-Ab2 (antibody, V domains shown, mouse hybridoma mAb; VH/VL only; also called 6301A10E12) VH: QVQLQQSGAELARPGASVKLSCKASGYTFTSYGISWVKQRTGQGLEWIGEIYPRSGNTYYNEKFKGKATLTADKSSSTAYMELRSLTSEDSAVYFCASESYYGDYDWYFDVWGTGTTVTVSS VL: DVLMTQTPLSLPVSLGDQASISCRSSHSIEHSNGNTYLEWCLQKPGQPPKFLIYKVSNRFSGVPDRFSGSGSGTDFTLRISRVEAEDLGVYYCFQGSHVPPTFGGGTKLEIK : 2.69
ACI-7079-3112H1-Ab1 (antibody, V domains shown, mouse hybridoma mAb; VH/VL only; also called 3112H1F3) VH: EVQLQQSGPELVKPGASVKISCKASGYTFSDYFMNWVKQSHGKSLEWIGDINPNNGGSSYIQKFKGKATLTVDKSSTTAYMELRSLTSEDSAVYYCARGSNYAMDSWGQGTSVTVSS VL: DIVMSQSPSSLAVSAGEKVTMSCKSSQSLLNSRTRKNYLAWYQQKPGQSPKLLIYWASTRESGVPDRFTGSGSGTDFTLTISSVQAEDLAVYYCKQSYDLWTFGGGTKLEIK : 19.3
ACI-7089-4415G5-Ab1 (antibody, V domains shown, mouse hybridoma mAb; VH/VL only; also called 4415G5A11) VH: QVQLQQSGAELARPGASVKVSCKASGYTFTSSGISWLKHRTGQGLEWIGDIYPRSGNTYYNEKFKDKATLTADKSSSTAYMELRSLTSEDSAVYFCASGNYWGQGTTLTVSA VL: DIVITQDDLSNPVTSGESVSISCRSSKSLLYKDGKTYLNWFLQRPGQSPQLLIYLMSTRASGVSDRFSGSGSGTDFTLEISRVKAEDVGVYYCQQLLEYPLTFGAGTKLELK : 1.3
ACI-7079-3106F2-Ab1 (antibody, V domains shown, mouse hybridoma mAb; VH/VL only; also called 3106F2C8) VH: EVQLQQSGAELVRPGASVKLSCTASGFNVKDDYMHWVKQRPEQGLEWIGWIDPENGDTEYASKFQGKATLTADTSSNTAYLQLSGLTSVDTAVYYCTTAGTSPYYFDYWGQGTTLTVSS VL: DIVMTQSQKFMSTSVGDRVSVTCKASQNVGTNVAWYQQKVGQSPKALIYSASYRYSGVPDRFTGSGSGTDFTLTISNVQSEDLADYFCQQYNSYPLTFGSGTKLEIK : 31.5
ACI-7079-3103G12-Ab2 (antibody, V domains shown, mouse hybridoma mAb; VH/VL only; also called 3103G12D2B10) VH: DVQLQESGPGMVKPSQSLSLTCTVTGYSITSGYDWHWIRHFPGNKLEWMGYITYSGSTNYNPSLKSRISITHDTSKNHFFLKLTSVTTEDTATYYCARDTVDAWFAYWGQGTLVTVSA VL: DVLMTQAPLSLPVSLGDQASISCRSSQSIVHSNGDTYLEWYLQKPGQSPKLLIYKVSNRFSGVPDRFSGSGSGTDFTLKISRVEAEDLGVYYCFQGSHVPPTFGGGTKLEIK : 22.5
ACI-8030-6106F5-Ab1 (antibody, V domains shown, mouse hybridoma mAb; VH/VL only; also called 6106F5B10) VH: QVQLQQSGPELVKPGASVKISCKASGYSFTTYYIHWMKQRPGQGPEWIGWIYPGRGYTKYNEKFKDKAAQTADTSSNTAYMQLSSLRSEDSAVYYCARDWETGFPYWGQGTLVTVSA VL: DIVLTQSPASLAVSLGQRATISCKASQSVDYGGDSWLNWYQQKPGQPPKLLIYAASNLDSGIPARFGGSGSGTDFTLNIHPVEEEDAATYYCQQSGEDPFTFGGGTNLEIK : 16.7
ACI-8032-6301G2-Ab2 (antibody, V domains shown, mouse hybridoma mAb; VH/VL only; also called 6301G2D11) VH: EVQLQQSGPELVKPGASVKISCKASGYTFTDYFMNWVKQSHGKSLEWIGDINPNIGVTNYNPKFKDRATLTVDKSSSSAYMELRSLTSEDSTVYYCARGGGSNPLYYAMDYWGQGTSVTVSS VL: DIVMSQSPSSLAVSAGEKVTMSCKSSQSLLNSRTRKNYLAWYQQKPGQSPKLLIYWASTRESGVPDRFTGSGSGTDFTLTISSVQAEDLAVYFCKQSYDLWTFGGGTKLEIK : 3350
ACI-8033-6403A4-Ab1 (antibody, V domains shown, mouse hybridoma mAb; VH/VL only; also called 6403A4A3) VH: EVQLVESGGGLVQPKGSLKLSCAASGFSFNTYAMNWVRQAPGKGLEWVARIRSKSNNYTTYYADSVKDRFTISRDDSESMLYLQMNNLKTEDTAMYYCVRTMDYWGQGTSVTVSS VL: QIVLTQSPAIMSASLGEEITLTCSASSSISYMHWYQQKSGTSPKLLIHSTFNLASGVPSRFSGSGSGTFYSLTISSVEAEDAADYYCHQWSSYYTFGGGTKLEIK : 37.9
ACI-7079-2601B6-Ab1 (antibody, V domains shown, mouse hybridoma mAb; VH/VL only; also called 2601B6D2; ACI-7079-26016NAbM) VH: EIQLQQSGAELVRPGASVKLSCTTSGFNIKDDYIHWVKQRPEQGLEWIGWIDPENGDTDYASKFQGKATITADTSSNTAYLHLSSLTSEDAAVYFCTTRGFGYWGQGTLVTVS VL: DIVMTQSHKFMSTSVGDRVSITCKASQDVGNVVAWYQQKPGQSPKLLIYWASSRHTGVPDRFTGSGSGTEFTLTISNVQSEDLADYFCQQYSSYPLTFGAGTKLELK : 22
ACI-8032-6314A3-Ab3 (antibody, V domains shown, mouse hybridoma mAb; VH/VL only; also called 6314A3E4) VH: QVQLQQSGAELARPGASVKLSCKASGYTFTSYGVSWVKQRTGQGLEWIGEIYPRSGNTYYNEKFKGKATLTADKSSSTAYMELRSLTSEDSAVYFCASESYYGDYDWYFDVWGTGTTVTVSS VL: DVLMTQIPLSLPVSPGDQVFISCRSSQSIVHSNGNTYLEWYLQKPGQSPKPLIYKVSNRFSGVPDRFSGSGSGTDFTLKISRVEAEDLGVYYCFQGSHVPPTFGGGTKLEIK : 41.5
